Task for the reader: assign each of the following compounds its reported pIC50.
# Tested on: EM-2;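 note: growth inhibition of EM-2 cells, read out with a cell viability assay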
# Protocol Description: cells
# Format: functional, cell-based, Homo sapiens
# Settings: Homo sapiens, EM-2
# Description: SANGER: Inhibition of human EM-2 cell growth in a cell viability assay.
pIC50: −log10 of the molar value.

// solved cases for pIC50 follow
Q: What does the data say about its pIC50? Entry: Nc1ccn([C@@H]2O[C@H](CO)[C@@H](O)C2(F)F)c(=O)n1
A: 6.80

Q: Next compound up: CS(=O)(=O)c1ccc(C(=O)Nc2ccc(Cl)c(-c3ccccn3)c2)c(Cl)c1
A: < 5.00

Q: Next compound up: O=C(O)c1ccc(-c2c[nH]c3ncc(-c4ccccc4)cc23)cc1C1CCCC1
A: < 4.80

Q: Next compound up: CCN(CC)CCNC(=O)c1c(C)[nH]c(/C=C2\C(=O)Nc3ccc(F)cc32)c1C
A: < 5.10

Q: Next compound up: Nc1cccc2c1CN(C1CCC(=O)NC1=O)C2=O (stereo not drawn) [LENALIDOMIDE]
A: < 5.30

Q: Next compound up: Cn1cnc2c(F)c(Nc3ccc(Br)cc3Cl)c(C(=O)NOCCO)cc21
A: 6.29

Q: Next compound up: C#Cc1cccc(Nc2ncnc3cc(OCCOC)c(OCCOC)cc23)c1
A: < 5.70

Query compound follows.
Q: What does the data say about its pIC50? Entry: Cc1ccc(-c2c(C(=O)CCl)n(CCCO)c3ncnc(N)c23)cc1
A: < 5.40

###

# System: HDLM-2;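 note: cell viability assay measuring suppression of HDLM-2 proliferation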
# Protocol Description: cells
# Format: functional, cell-based, Homo sapiens
# Settings: Homo sapiens, HDLM-2
# Description: SANGER: Inhibition of human HDLM-2 cell growth in a cell viability assay.
Value Kind: pIC50
Give bare numbers, as −log10 of the molar value.

// solved cases for pIC50 follow
Q: What does the data say about its pIC50? Entry: CCN(CC)CCNC(=O)c1c(C)[nH]c(/C=C2\C(=O)Nc3ccc(F)cc32)c1C [SUNITINIB]
A: 5.20

Q: Next compound up: N#Cc1c(O)c2c(-c3ccc(-c4ccccc4O)cc3)csc2[nH]c1=O
A: 6.87

Further cases:
Q: What does the data say about its pIC50? Entry: Cc1cc([N+](=O)[O-])ccc1NS(=O)(=O)c1cc(Cl)ccc1Cl
A: 5.17

###

# Test system: SIMA;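 note: growth inhibition of SIMA cells, measured with a cell viability readout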
# Protocol Description: cells
# Type: functional, cell-based, Homo sapiens
# Settings: Homo sapiens, SIMA
# Description: SANGER: Inhibition of human SIMA cell growth in a cell viability assay.
Task for the reader: assign each of the following molecules its reported IC50.

Q: What does the data say about its IC50? Entry: COc1cc(N2CCN(C)CC2)ccc1Nc1ncc2c(n1)N(C)c1ccccc1C(=O)N2C
A: > 8 µM

Parameter requested: IC50. Apply to each item below.
1. N#Cc1c(O)c2c(-c3ccc(-c4ccccc4O)cc3)csc2[nH]c1=O
2. CC[C@H](CO)Nc1nc(NCc2ccccc2)c2ncn(C(C)C)c2n1
3. COc1cc2ncn(-c3cc(OCc4ccccc4S(C)(=O)=O)c(C#N)s3)c2cc1OC [GSK-319347A]

A:
1: > 1.02 µM; 2: > 16 µM; 3: > 5 µM

Parameter requested: IC50. Apply to each item below.
1. C#Cc1cccc(Nc2ncnc3cc(OCCOC)c(OCCOC)cc23)c1
2. Cc1cc([N+](=O)[O-])ccc1NS(=O)(=O)c1cc(Cl)ccc1Cl
3. C=C(c1ccc(C(=O)O)cc1)c1cc2c(cc1C)C(C)(C)CCC2(C)C

A:
1: > 2 µM; 2: 13.8 µM; 3: > 8 µM

Q: What does the data say about its IC50? Entry: Oc1ccc2ccccc2c1SSc1c(O)ccc2ccccc12
A: > 32 µM

###

Task for the reader: assign each of the following compounds its reported pIC50.
# Test system: RKO
# Protocol Description: cells
# Assay type: functional, cell-based, Homo sapiens
# Settings: Homo sapiens, RKO
# Description: SANGER: Inhibition of human RKO cell growth in a cell viability assay.
pIC50: −log10 of the molar value.

// solved cases for pIC50 follow
Q: What does the data say about its pIC50? Entry: CCN(CC)CCNC(=O)c1c(C)[nH]c(/C=C2\C(=O)Nc3ccc(F)cc32)c1C [SUNITINIB]
A: < 5.10

Q: Next compound up: CC[C@H](CO)Nc1nc(NCc2ccccc2)c2ncn(C(C)C)c2n1 [SELICICLIB]
A: < 4.80

Q: Next compound up: CC1(C)CNc2cc(NC(=O)c3cccnc3NCc3ccncc3)ccc21 [MOTESANIB]
A: < 5.70

Q: Next compound up: COc1cc2c(Nc3ccc(NC(=O)c4ccccc4)cc3)ncnc2cc1OCCCN1CCOCC1
A: 6.15

Query compound follows.
Q: What does the data say about its pIC50? Entry: CCN(CC)CCCCNc1ncc2cc(-c3cc(OC)cc(OC)c3)c(NC(=O)NC(C)(C)C)nc2n1 [PD-173074]
A: < 5.70

###

Task for the reader: assign each of the following compounds its reported IC50.
# System: SK-N-DZ;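 note: growth inhibition of the cancer cell line, read out through a viability assay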
# Protocol Description: cells
# Assay type: functional, cell-based, Homo sapiens
# Settings: Homo sapiens, SK-N-DZ
# Description: SANGER: Inhibition of human SK-N-DZ cell growth in a cell viability assay.
One number for each entry, in µM.

// solved cases for IC50 follow
Q: What does the data say about its IC50? Entry: Oc1ccc2ccccc2c1SSc1c(O)ccc2ccccc12
A: 9.2

Q: Next compound up: COc1cc2ncn(-c3cc(OCc4ccccc4C(F)(F)F)c(C(N)=O)s3)c2cc1OC [GW843682X]
A: 0.0374

Query compound follows.
Q: What does the data say about its IC50? Entry: CN(C)C(=N)NC(=N)N
A: 13300

###

# Test system: D-542MG
# Protocol Description: cells
# Assay type: functional, cell-based, Homo sapiens
# Settings: Homo sapiens, D-542MG
# Description: SANGER: Inhibition of human D-542MG cell growth in a cell viability assay.
pIC50: −log10 of the molar value.
Value Kind: pIC50

Parameter requested: pIC50. Apply to each item below.
1. CC[C@H](CO)Nc1nc(NCc2ccccc2)c2ncn(C(C)C)c2n1
2. Cc1cn(-c2cc(NC(=O)c3ccc(C)c(Nc4nccc(-c5cccnc5)n4)c3)cc(C(F)(F)F)c2)cn1

A:
["< 4.80", "< 5.70"]

###

# Test system: SF-268;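 note: growth inhibition of SF-268 cells determined with a cell viability assay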
# Protocol Description: cells
# Type: functional, cell-based, Homo sapiens
# Settings: Homo sapiens, SF-268
# Description: SANGER: Inhibition of human SF268 cell growth in a cell viability assay.
pIC50: −log10 of the molar value.
Task for the reader: assign each of the following compounds its reported pIC50.

// solved cases for pIC50 follow
Q: What does the data say about its pIC50? Entry: CC(C)CCN1c2nc(Nc3cc(F)c(O)c(F)c3)ncc2N(C)C(=O)C1C (stereo not given)
A: 5.54

Q: Next compound up: Cn1cnc2c(F)c(Nc3ccc(Br)cc3Cl)c(C(=O)NOCCO)cc21
A: < 5.40

Q: Next compound up: Nc1ccn([C@@H]2O[C@H](CO)[C@@H](O)C2(F)F)c(=O)n1
A: > 8.40

Q: Next compound up: CN(C)C(=N)NC(=N)N
A: < 1.70

Query compound follows.
Q: What does the data say about its pIC50? Entry: C#Cc1cccc(Nc2ncnc3cc(OCCOC)c(OCCOC)cc23)c1
A: < 5.70

###

Task for the reader: assign each of the following compounds its reported IC50.
# System: MHH-CALL-2;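 note: growth inhibition of the cell line, read out in a cell viability assay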
# Protocol Description: cells
# Format: functional, cell-based, Homo sapiens
# Settings: Homo sapiens, MHH-CALL-2
# Description: SANGER: Inhibition of human MHH-CALL-2 cell growth in a cell viability assay.

// solved cases for IC50 follow
Q: What does the data say about its IC50? Entry: CC(=O)O[C@H]1C(=O)[C@@]2(C)[C@H]([C@H](OC(=O)c3ccccc3)[C@]3(O)C[C@H](OC(=O)[C@H](O)[C@@H](NC(=O)c4ccccc4)c4ccccc4)C(C)=C1C3(C)C)[C@]1(OC(C)=O)CO[C@@H]1C[C@@H]2O
A: 35.6 nM

Q: Next compound up: N#Cc1c(O)c2c(-c3ccc(-c4ccccc4O)cc3)csc2[nH]c1=O
A: > 1020 nM

Q: Next compound up: C#Cc1cccc(Nc2ncnc3cc(OCCOC)c(OCCOC)cc23)c1
A: > 2000 nM

Q: Next compound up: Oc1ccc2ccccc2c1SSc1c(O)ccc2ccccc12
A: > 32000 nM

Q: Next compound up: N[C@@H](CSC(c1ccccc1)(c1ccccc1)c1ccccc1)C(=O)O
A: > 5120 nM

Further cases:
Q: What does the data say about its IC50? Entry: C=C(c1ccc(C(=O)O)cc1)c1cc2c(cc1C)C(C)(C)CCC2(C)C
A: > 8000 nM

###

# System: HAL-01
# Protocol Description: cells
# Format: functional, cell-based, Homo sapiens
# Settings: Homo sapiens, HAL-01
# Description: SANGER: Inhibition of human HAL-01 cell growth in a cell viability assay.
Task for the reader: assign each of the following molecules its reported pIC50.
One number for each entry, as −log10 of the molar value.

// solved cases for pIC50 follow
Q: What does the data say about its pIC50? Entry: Cc1cc([N+](=O)[O-])ccc1NS(=O)(=O)c1cc(Cl)ccc1Cl
A: 4.91

Q: Next molecule up: COc1cc(N2CCN(C)CC2)ccc1Nc1ncc2c(n1)N(C)c1ccccc1C(=O)N2C
A: 5.67

Q: Next molecule up: Nc1ccn([C@@H]2O[C@H](CO)[C@@H](O)C2(F)F)c(=O)n1 [GEMCITABINE]
A: 8.09

Further cases:
Q: What does the data say about its pIC50? Entry: COc1cc2ncn(-c3cc(OCc4ccccc4C(F)(F)F)c(C(N)=O)s3)c2cc1OC [GW843682X]
A: 7.09

The reported measurements were obtained from ChEMBL document CHEMBL1201861.
